Test: Cmax in mouse at 100 mg/kg, po
Format: ADME, organism-based
Parameters: dose 100 mg/kg, route oral
Settings: in vivo
RECORDED ENDPOINT: Cmax (µM)
Numeric only. Scale: µM

Return reported Cmax; argument: "CCS(=O)(=O)c1cc(Nc2ncc(F)c(N(C)c3cc(CO)c(C)cc3C)n2)ccc1N1C[C@@H]2C[C@H]1CN2C"
7.7

----------
Molecular target: Serine/threonine-protein kinase PAK 2 (Homo sapiens, UniProt Q13177)
Sequence (Q13177 whole entry): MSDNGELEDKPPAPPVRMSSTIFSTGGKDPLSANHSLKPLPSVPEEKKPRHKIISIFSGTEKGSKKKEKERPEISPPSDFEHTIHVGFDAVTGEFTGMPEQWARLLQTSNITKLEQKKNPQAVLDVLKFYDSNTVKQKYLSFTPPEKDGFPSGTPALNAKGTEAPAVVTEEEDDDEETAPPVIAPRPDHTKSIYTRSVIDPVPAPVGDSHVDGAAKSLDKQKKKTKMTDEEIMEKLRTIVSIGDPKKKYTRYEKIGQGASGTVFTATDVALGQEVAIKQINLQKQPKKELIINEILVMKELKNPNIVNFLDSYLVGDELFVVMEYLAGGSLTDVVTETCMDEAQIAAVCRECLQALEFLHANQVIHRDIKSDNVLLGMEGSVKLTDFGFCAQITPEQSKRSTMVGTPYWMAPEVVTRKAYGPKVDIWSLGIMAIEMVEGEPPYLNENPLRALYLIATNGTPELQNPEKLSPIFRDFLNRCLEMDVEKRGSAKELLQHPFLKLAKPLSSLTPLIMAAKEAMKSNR
RECORDED ENDPOINT: Kd (nM)
Numeric only. Scale: nM

# get_value(readout= Kd, system= Serine/threonine-protein kinase PAK 2 (Homo sapiens, UniProt Q13177)) for "CCS(=O)(=O)c1cc(Nc2ncc(F)c(N(Cc3ccccc3C#N)c3cc(CO)ccc3C)n2)ccc1N1CCN(C)CC1"
0.32

----------
Target: Tyrosine-protein kinase Lck (Homo sapiens, UniProt P06239)
Sequence (P06239 whole entry): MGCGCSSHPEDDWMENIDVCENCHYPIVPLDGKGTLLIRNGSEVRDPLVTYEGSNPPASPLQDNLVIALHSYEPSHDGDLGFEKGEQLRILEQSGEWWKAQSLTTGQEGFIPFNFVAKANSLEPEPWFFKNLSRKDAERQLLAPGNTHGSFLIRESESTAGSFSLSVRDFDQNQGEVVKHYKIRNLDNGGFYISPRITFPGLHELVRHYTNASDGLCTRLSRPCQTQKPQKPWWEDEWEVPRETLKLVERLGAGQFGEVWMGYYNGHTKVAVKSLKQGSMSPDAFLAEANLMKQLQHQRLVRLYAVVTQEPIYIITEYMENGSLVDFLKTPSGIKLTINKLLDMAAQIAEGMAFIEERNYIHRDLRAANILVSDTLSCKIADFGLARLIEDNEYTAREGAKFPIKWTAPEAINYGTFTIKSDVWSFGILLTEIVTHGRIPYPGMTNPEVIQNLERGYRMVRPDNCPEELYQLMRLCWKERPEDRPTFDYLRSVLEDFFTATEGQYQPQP
Test: Inhibition of N-terminal 6His-tagged full length recombinant human LCK expressed in baculovirus expression system
RECORDED ENDPOINT: pIC50
Expect pIC50 as a plain number equal to -log10 of the molar concentration.

Return reported pIC50; argument: "CCS(=O)(=O)c1cc(Nc2ncc(F)c(N(Cc3ccccc3C#N)c3cc(CO)ccc3C)n2)ccc1N1CCN(C)CC1"
7.44

----------
Assay: Half life in mouse at 0.5 mg/kg, iv
Assay type: ADME, organism-based
Details: in vivo
RECORDED ENDPOINT: half-life (min)
Numeric only. Scale: min

Return reported half-life; argument: "CCS(=O)(=O)c1cc(Nc2ncc(F)c(N(C)c3cc(CO)c(C)cc3C)n2)ccc1N1C[C@@H]2C[C@H]1CN2C"
60

----------
Biological target: PAK2 (serine/threonine-protein kinase PAK 2) (Homo sapiens, UniProt Q13177)
Sequence (Q13177 whole entry): as the sequence (Q13177 whole entry) above
Test: Inhibition of N-terminal 6His-tagged recombinant human PAK2 (3-end residues) expressed in expressed in Escherichia coli at 100 nM
RECORDED ENDPOINT: inhibition at 0.1 µM (%)
Numeric only. Scale: %

# get_value(readout= inhibition at 0.1 µM, system= PAK2 (serine/threonine-protein kinase PAK 2) (Homo sapiens, UniProt Q13177)) for "CCS(=O)(=O)c1cc(Nc2ncc(F)c(N(Cc3ccccc3C#N)c3cc(CO)ccc3C)n2)ccc1N1CCN(C)CC1"
98

----------
Listed here are compounds together with their documented logD.
Experiment: Distribution coefficient, logD of the compound
Format: physicochemical
Conditions: octanol/water
Answer with a bare number; do not write a unit.

Return reported logD; argument: "CCS(=O)(=O)c1cc(Nc2ncc(F)c(N(C)c3cc(CO)c(C)cc3C)n2)ccc1N1CCN(C)CC1"
3.8

Return reported logD; argument: "CCS(=O)(=O)c1cc(Nc2ncc(F)c(N(Cc3ccccc3C#N)c3cc(CO)ccc3C)n2)ccc1N1CCN(C)CC1"
3.7

Return reported logD; argument: "Cc1ccc(CO)cc1N(C)c1nc(Nc2ccc(N3CCN(C)CC3)c(S(C)(=O)=O)c2)ncc1F"
2.6

Return reported logD; argument: "Cc1cc(C)c(N(C)c2nc(Nc3ccc(N4CCN(C)CC4)cc3)ncc2F)cc1CO"
3

Return reported logD; argument: "CN(c1cc(CO)ccc1Cl)c1nc(Nc2cc(N3CCOCC3)cc(S(C)(=O)=O)c2)ncc1F"
3.7

Return reported logD; argument: "Cc1ccc(CO)cc1N(C)c1nc(Nc2cc(N3CCOCC3)cc(S(C)(=O)=O)c2)ncc1F"
3.3

Return reported logD; argument: "CCS(=O)(=O)c1cc(Nc2ncc(F)c(N(Cc3ccccc3F)c3cc(CO)ccc3C)n2)ccc1N1CCN(C)CC1"
3.3

Return reported logD; argument: "CN(c1cccc(CO)c1)c1nc(Nc2cc(N3CCOCC3)cc(S(C)(=O)=O)c2)ncc1F"
3

Return reported logD; argument: "Cc1cc(C)c(N(C)c2nc(Nc3cc(N4CCOCC4)cc(S(C)(=O)=O)c3)ncc2F)cc1CO"
3.8

Return reported logD; argument: "CCN(c1cc(CO)ccc1C)c1nc(Nc2ccc(N3CCN(C)CC3)c(S(=O)(=O)CC)c2)ncc1F"
3.5

Return reported logD; argument: "CCS(=O)(=O)c1cc(Nc2ncc(F)c(N(C)c3cc(CO)c(C)cc3C)n2)ccc1N1C[C@@H]2C[C@H]1CN2C"
2.5

Return reported logD; argument: "CCS(=O)(=O)c1cc(Nc2ncc(F)c(N(C)c3cc(CO)ccc3C)n2)ccc1N1CCN(C)CC1"
3

Return reported logD; argument: "CCS(=O)(=O)c1cc(Nc2ncc(F)c(N(Cc3ccccc3)c3cc(CO)ccc3C)n2)ccc1N1CCN(C)CC1"
2.8

Return reported logD; argument: "CCS(=O)(=O)c1cc(Nc2ncc(F)c(N(C)c3cc(CO)c(C)cc3C)n2)cc(N2CCOCC2)c1"
3.8

Return reported logD; argument: "COCc1ccc(C)c(N(C)c2nc(Nc3cc(N4CCOCC4)cc(S(C)(=O)=O)c3)ncc2F)c1"
3.7

Return reported logD; argument: "Cc1ccc(N(C)c2nc(Nc3cc(N4CCOCC4)cc(S(C)(=O)=O)c3)ncc2F)cc1CO"
3.3

----------
Assay: Unbound fraction in mouse plasma at 0.5 mg/kg, iv or 100 mg/kg, po
Assay type: ADME, organism-based
RECORDED ENDPOINT: fraction unbound
Answer with a bare number; do not write a unit.

Return reported fraction unbound; argument: "CCS(=O)(=O)c1cc(Nc2ncc(F)c(N(C)c3cc(CO)c(C)cc3C)n2)ccc1N1C[C@@H]2C[C@H]1CN2C"
0.029

----------
Assay: Clearance in mouse at 0.5 mg/kg, iv
Assay type: ADME, organism-based
Conditions: in vivo
RECORDED ENDPOINT: clearance (mL/min/kg)
Numeric only. Scale: mL/min/kg

Return reported clearance; argument: "CCS(=O)(=O)c1cc(Nc2ncc(F)c(N(C)c3cc(CO)c(C)cc3C)n2)ccc1N1C[C@@H]2C[C@H]1CN2C"
22

----------
Target: UniProtKB P07947
Sequence (P07947 whole entry): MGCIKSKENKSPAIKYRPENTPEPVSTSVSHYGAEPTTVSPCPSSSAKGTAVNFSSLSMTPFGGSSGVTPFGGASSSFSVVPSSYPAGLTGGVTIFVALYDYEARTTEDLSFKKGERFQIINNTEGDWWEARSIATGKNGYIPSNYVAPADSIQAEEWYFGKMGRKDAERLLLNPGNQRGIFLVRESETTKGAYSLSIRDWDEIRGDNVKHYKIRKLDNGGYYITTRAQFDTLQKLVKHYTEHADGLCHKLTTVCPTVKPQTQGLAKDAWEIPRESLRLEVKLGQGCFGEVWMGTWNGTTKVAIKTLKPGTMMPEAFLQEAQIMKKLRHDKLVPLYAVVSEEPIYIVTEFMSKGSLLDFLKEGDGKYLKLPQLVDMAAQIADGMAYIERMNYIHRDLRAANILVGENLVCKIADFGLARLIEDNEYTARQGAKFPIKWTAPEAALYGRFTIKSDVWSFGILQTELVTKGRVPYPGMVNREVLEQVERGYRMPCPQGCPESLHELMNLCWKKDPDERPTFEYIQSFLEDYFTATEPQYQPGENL
Assay: Inhibition of N-terminal 6His-tagged full length recombinant human YES expressed in baculovirus expression system
RECORDED ENDPOINT: IC50 (nM)
Numeric only. Scale: nM

Return reported IC50; argument: "CCS(=O)(=O)c1cc(Nc2ncc(F)c(N(Cc3ccccc3C#N)c3cc(CO)ccc3C)n2)ccc1N1CCN(C)CC1"
4

----------
Target: Tyrosine-protein kinase Fyn (Homo sapiens, UniProt P06241)
Sequence (P06241 whole entry): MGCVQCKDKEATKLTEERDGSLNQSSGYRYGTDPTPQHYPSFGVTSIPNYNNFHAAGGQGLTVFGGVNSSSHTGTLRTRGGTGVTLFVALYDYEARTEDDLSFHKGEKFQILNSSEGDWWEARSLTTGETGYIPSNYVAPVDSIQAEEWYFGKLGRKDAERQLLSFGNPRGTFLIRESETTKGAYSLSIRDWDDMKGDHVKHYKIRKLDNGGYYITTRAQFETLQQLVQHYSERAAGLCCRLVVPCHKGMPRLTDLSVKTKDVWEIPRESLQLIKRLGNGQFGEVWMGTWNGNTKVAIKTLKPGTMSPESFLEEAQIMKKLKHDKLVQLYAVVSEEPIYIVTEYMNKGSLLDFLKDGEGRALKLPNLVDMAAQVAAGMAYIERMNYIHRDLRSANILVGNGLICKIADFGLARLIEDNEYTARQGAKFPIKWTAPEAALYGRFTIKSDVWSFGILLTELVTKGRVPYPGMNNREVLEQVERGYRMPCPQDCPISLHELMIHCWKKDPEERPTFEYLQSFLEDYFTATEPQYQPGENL
Assay: Inhibition of N-Terminal His6-tagged full length recombinant human FYN expressed in baculovirus expression system
RECORDED ENDPOINT: IC50
The answer should read as a number with its unit following.

Return reported IC50; argument: "CCS(=O)(=O)c1cc(Nc2ncc(F)c(N(Cc3ccccc3C#N)c3cc(CO)ccc3C)n2)ccc1N1CCN(C)CC1"
0.045 µM
